Test: inhibitors of TNFa-induced NFkB p65 translocation, primary screen, imaging, HUVEC, MLSMR starter and 10KST1 sets (AID 438);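 note: compound added about 3h40 before a 20 min TNFalpha stimulation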
Details: HUVEC TNFa-induced p65 nuclear translocation; measured here: nuclei count (cytotoxicity indicator), at 2.08 µM
Answer criterion not met if cell count is under 500, and criterion met if it is 500 or more.

Recorded results for 10 compounds are shown here.
- compound: "Cc1ccccc1C(=O)Nc1c(C(=O)N2CCCC2)cnn1-c1ccccc1"
  category: "criterion not met"
- compound: "CC(C)CNS(=O)(=O)c1ccc(CCC(=O)N2CCOCC2)cc1"
  category: "criterion met"
- compound: "CC1(C)CC(CCNC(=O)c2ccco2)CC(C)(C)N1"
  category: "criterion not met"
- compound: "CC(C)CC(=O)Nc1ccccc1-c1nnn(CC(=O)N2CCOCC2)n1"
  category: "criterion met"
- compound: "Cc1cc(C)nc(N(C#N)CC(=O)N2CCC(C(N)=O)CC2)n1"
  category: "criterion met"
- compound: "Cc1sc(NC(=O)CSc2nc(N)n(CC(=O)c3ccccc3)n2)c(C#N)c1C"
  category: "criterion not met"
- compound: "O=C(Nc1nc2c(s1)CCc1ccccc1-2)c1cccs1"
  category: "criterion met"
- compound: "O=C(O)[C@@H]1CCCN1c1ncnc2sc3c(c12)CCC3"
  category: "criterion not met"
- compound: "CC1CCN(C(=O)CSc2nc3ccccc3[nH]2)CC1"
  category: "criterion met"
- compound: "C=CCN1C(=O)C2(C(C#N)=C(N)Oc3n[nH]c(CCC)c32)c2ccccc21 (configuration not stated)"
  category: "criterion not met"

Here is the next item to consider.
Exercise: Dear colleague, could you confirm whether Cc1cc(C)cc(NC(=O)CSc2nnc(Cc3cccn3C)n2-c2ccc(F)cc2)c1 has cell count at or above 500?
Key: criterion not met
